Test: Plasma pharmacokinetics of GAE after single oral administration (HPLC, non-compartmental)
Format: in vivo, mice
Conditions: male, C57BL/6, mouse, po, 200 mg/kg, R + GAE group (60Co-γ 5 Gy, GAE 15 min post irradiation), 200 mg/kg b.wt oral, read-out: AUC0-α (converted)
endpointLabel: AUC (ng·h/mL)
Expressed in ng·h/mL, but write only the number.

Reported AUC ( CCOC(=O)c1cc(O)c(O)c(O)c1 [GAE, Ethyl 3,4,5-trihydroxybenzoate] ) = 1070

* * *

Test: Biodistribution of GAE in liver, kidney, heart, spleen and brain after oral administration
Type: in vivo, mice
Settings: male, C57BL/6, mouse, heart, po, 200 mg/kg, R + GAE group (5 Gy); 1 h; 200 mg/kg b.wt oral; read-out: GAE concentration in the heart
endpointLabel: concentration at 1 h (ng/g)
Field format: number, assumed ng/g, no unit text.

Reported concentration at 1 h for CCOC(=O)c1cc(O)c(O)c(O)c1 [GAE, Ethyl 3,4,5-trihydroxybenzoate] was 506

* * *

Test: Plasma pharmacokinetics of GAE after single oral administration (HPLC, non-compartmental)
Assay type: in vivo, mice
Details: male, C57BL/6, mouse, po, 200 mg/kg, R + GAE group (60Co-γ 5 Gy, GAE 15 min post irradiation), 200 mg/kg b.wt oral, read-out: Cmax
endpointLabel: Cmax (ng/mL)
Respond with the bare value in ng/mL.

Reported Cmax ( CCOC(=O)c1cc(O)c(O)c(O)c1 [GAE, Ethyl 3,4,5-trihydroxybenzoate] ) = 3390

* * *

Experiment: Plasma pharmacokinetics of GAE after single oral administration (HPLC, non-compartmental)
Type: in vivo, mice
Settings: male, C57BL/6, mouse, po, 200 mg/kg, GAE treated group, 200 mg/kg b.wt oral, read-out: Cmax
endpointLabel: Cmax (ng/mL)
Answer in ng/mL, number only, no unit symbol.

Memo: CCOC(=O)c1cc(O)c(O)c(O)c1 [GAE, Ethyl 3,4,5-trihydroxybenzoate] , reported Cmax: 4390

* * *

Test: Plasma pharmacokinetics of GAE after single oral administration (HPLC, non-compartmental)
Format: in vivo, mice
Details: male, C57BL/6, mouse, po, 200 mg/kg, R + GAE group (60Co-γ 5 Gy, GAE 15 min post irradiation), 200 mg/kg b.wt oral
endpointLabel: Tmax

Record CCOC(=O)c1cc(O)c(O)c(O)c1 [GAE, Ethyl 3,4,5-trihydroxybenzoate] . Reported Tmax: ~15 min

* * *

Assay: Biodistribution of GAE in liver, kidney, heart, spleen and brain after oral administration
Type: in vivo, mice
Conditions: male, C57BL/6, mouse, kidney, po, 200 mg/kg, GAE treated group; 2 h; 200 mg/kg b.wt oral
endpointLabel: concentration at 2 h (ng/g)
State the answer as a number, implicitly in ng/g.

For this molecule ( CCOC(=O)c1cc(O)c(O)c(O)c1 [GAE, Ethyl 3,4,5-trihydroxybenzoate] ), measured concentration at 2 h is 529

* * *

Test: Plasma pharmacokinetics of GAE after single oral administration (HPLC, non-compartmental)
Format: in vivo, mice
Conditions: male, C57BL/6, mouse, po, 200 mg/kg, R + GAE group (60Co-γ 5 Gy, GAE 15 min post irradiation), 200 mg/kg b.wt oral
endpointLabel: AUC(0-t) (ng·h/mL)
The response must be a number in ng·h/mL with no trailing unit.

Lab book: AUC(0-t) of CCOC(=O)c1cc(O)c(O)c(O)c1 [GAE, Ethyl 3,4,5-trihydroxybenzoate] noted as 1070
